B1: ZNF232 (parent)
chain: FPKSEQVYLHFLSVVTEDGPEPKD

# Variants of: B1
# PROCEDURE_DETAILS: protein stability index of a GFP-peptide fusion (GPS, HEK-293T) (PSI 1-6); higher = more stable;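 further: lentivirally expressed fusions sorted by FACS into six bins by GFP to DsRed ratio, PSI derived from sequencing read proportions per bin multiplied by bin number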
# EXPERIMENTAL_CONTEXT: c terminus: a fixed tail appended
In this section we review reported protein stability index values for a set of variants.
Respond numerically, and do not add a unit to the figure.

Noted for `V14M` : its protein stability index reads 2.37
